The origin of these recorded values is patent US8859549B2.

molecular target: KCNQ 2/3 channels (Homo sapiens, UniProt O43525+O43526); construct: expressed in transfected cells; host or cells: HEK293; experiment: KCNQ 2/3 channel activation, thallium flux FLIPR assay (BTC-AM dye); format: cell-based; details: HEK293, maximum response relative to the response of 10 μM retigabine (set at 100%); HEK293 KCNQ2/KCNQ3 cells; read-out: % MAX
assay metric: Emax (%)
The figure you give is taken to be in %; do not add the unit.

Under KCNQ 2/3 channels (Homo sapiens, UniProt O43525+O43526): Emax value of O=C(CC1CC2CCC1C2)Nn1nc(-c2ccc(Cl)nc2)c2ccccc2c1=O (racemic) [Example 4] ?
133

# get_value(readout= Emax, system= KCNQ 2/3 channels (Homo sapiens, UniProt O43525+O43526)) for CCC1CN(c2nn(NC(=O)CC3CC4CCC3C4)c(=O)c3ccccc23)CCO1 (racemic) [Example 220]
139

Request: Emax, test system KCNQ 2/3 channels (Homo sapiens, UniProt O43525+O43526), entry O=C(Cc1ccc(Cl)cc1)Nn1nc(S(=O)(=O)Cc2ccccc2)c2ccccc2c1=O [Example 216]
67.1

Request - read-out Emax | tested on KCNQ 2/3 channels (Homo sapiens, UniProt O43525+O43526) | compound O=C(Cc1ccccc1)NCc1nn(NC(=O)Cc2ccc(Cl)cc2)c(=O)c2ccccc12 [Example 86]
15.7

Under KCNQ 2/3 channels (Homo sapiens, UniProt O43525+O43526): Emax value of CC(C)(CC(=O)Nn1nc(S(=O)(=O)c2ccc(C#N)cc2)c2ccccc2c1=O)c1ccccc1 [Example 225] ?
37.3

Hello, I am looking for reported Emax with KCNQ 2/3 channels (Homo sapiens, UniProt O43525+O43526) for O=C(Cc1ccc(Cl)cc1)Nn1nc(Sc2ccncc2)c2ccccc2c1=O [Example 191] . Could you help?
78.5

# returns recorded Emax (system: KCNQ 2/3 channels (Homo sapiens, UniProt O43525+O43526)) for CC(C)(C)NC(=O)Cc1nn(NC(=O)Cc2ccc(Cl)cc2)c(=O)c2ccccc12 [Example 122]
14.2

Which Emax is reported with KCNQ 2/3 channels (Homo sapiens, UniProt O43525+O43526) for this entry: O=C(Cc1ccc(Cl)cc1)Nn1nc(-c2ccnc(Cl)c2)c2ccccc2c1=O [Example 49] ?
107

Record O=C(Cc1cccc(F)c1)Nn1nc(N2CCOCC2)c2ccccc2c1=O [Example 149] : what is its Emax with KCNQ 2/3 channels (Homo sapiens, UniProt O43525+O43526)?
82.7

What reported Emax corresponds to Cc1ccc(S(=O)(=O)c2nn(NC(=O)Cc3ccc(Cl)cc3)c(=O)c3ccccc23)cc1 [Example 192] on KCNQ 2/3 channels (Homo sapiens, UniProt O43525+O43526)?
103

Lab note: need Emax for O=C(Cc1ccc(Cl)cc1)Nn1nc(CNC(=O)OC2CCCCC2)c2ccccc2c1=O [Example 128] on KCNQ 2/3 channels (Homo sapiens, UniProt O43525+O43526), anyone have it?
21.6

Write down the reported Emax of CN(C)C(=O)c1nn(NC(=O)CC2CC3CCC2C3)c(=O)c2ccccc12 (racemic) [Example 56] , test system: KCNQ 2/3 channels (Homo sapiens, UniProt O43525+O43526).
84.9
